molecular target: T1, Talin rod R7R8 domains (UniProt P26039 1357-1653, limits assumed); test: fluorescence polarization; fluorophore-labelled peptide, purified talin protein titrated
T1 construct: domain: R7R8; also called talin R7R8; talin rod double-domain R7R8
T1 sequence (P26039 1357-1653 limits assumed): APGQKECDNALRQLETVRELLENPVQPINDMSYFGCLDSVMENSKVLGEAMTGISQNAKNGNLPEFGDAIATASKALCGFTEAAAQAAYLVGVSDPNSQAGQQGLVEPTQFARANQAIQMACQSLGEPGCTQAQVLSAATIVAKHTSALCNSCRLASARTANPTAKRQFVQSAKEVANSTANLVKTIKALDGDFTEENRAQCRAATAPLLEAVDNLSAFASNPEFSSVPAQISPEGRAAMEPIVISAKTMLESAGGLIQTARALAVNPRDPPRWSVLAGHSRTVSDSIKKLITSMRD
Ends that are not written are not given here.
readoutKind: pKd
Note: pKd values are expressed as the negative base-10 logarithm of concentration in M.

Measured pKd, NEDIDQMFSTLLGEMDLLTQS (also: fluorescein (6-FAM) label in some assays, also called WT-TBS; unstapled TBS) [TBS peptide (unstapled talin-binding site peptide of RIAM)] : 4.75

Values from patent US20240360186A1
